# assay.comment: MRT (0 to t) in male Sprague-Dawley rat at 2 mg/kg, iv measured for 0.083 to 12 hrs by LC-MS/MS analysis
# Format: ADME, organism-based
# applied.conditions: in vivo, time 0.083-12 hrs
measured.endpoint: MRT last (min)
Report the value in min with no unit label.

Ask | Query: MRT last; subject: CCCNNC(=O)CCCCCCNC(=O)c1cnc(-c2ccc(NC(=O)OC(C)(C)C)cc2)s1
Reply | 20.4

---

# assay.comment: VRT (0 to infinity) in male Sprague-Dawley rat at 20 mg/kg, po measured for 0.083 to 12 hrs by LC-MS/MS analysis
# Type: ADME, organism-based
# applied.conditions: in vivo, time 0.083-12 hrs
measured.endpoint: VRT (h²)
Report the value in h² with no unit label.

Ask | Query: VRT; subject: CCCNNC(=O)CCCCCCNC(=O)c1cnc(-c2ccc(NC(=O)OC(C)(C)C)cc2)s1
Reply | 14.7

---

# assay.comment: MRT (0 to infinity) in male Sprague-Dawley rat at 2 mg/kg, iv measured for 0.083 to 12 hrs by LC-MS/MS analysis
# Assay type: ADME, organism-based
# applied.conditions: in vivo, time 0.083-12 hrs
measured.endpoint: MRT inf (min)
Report the value in min with no unit label.

Ask | Query: MRT inf; subject: CCCNNC(=O)CCCCCCNC(=O)c1cnc(-c2ccc(NC(=O)OC(C)(C)C)cc2)s1
Reply | 22.2

---

# assay.comment: Half life in male Sprague-Dawley rat at 20 mg/kg, po measured for 0.083 to 12 hrs by LC-MS/MS analysis
# Type: ADME, organism-based
# applied.conditions: in vivo, time 0.083-12 hrs
measured.endpoint: half-life (h)
Report the value in h with no unit label.

Ask | Query: half-life; subject: CCCNNC(=O)CCCCCCNC(=O)c1cnc(-c2ccc(NC(=O)OC(C)(C)C)cc2)s1
Reply | 2.84

---

# System: SK-OV-3
# assay.comment: Antiproliferative activity against human SK-OV-3 cells incubated for 72 hrs by MTT assay
# Assay type: functional, cell-based
# applied.conditions: SK-OV-3, 72 h
measured.endpoint: pIC50
# pIC50: negative log10 of molar concentration; output just the value

Ask | Query: pIC50; subject: CCCNNC(=O)CCCCCNC(=O)c1cnc(-c2ccc(Oc3ccccc3)cc2)s1
Reply | 5.35

Ask | Query: pIC50; subject: CCCNNC(=O)CCCCCCNC(=O)c1cnc(-c2ccc3ccccc3c2)s1
Reply | 5.35

Ask | Query: pIC50; subject: CCCNNC(=O)c1ccc(NC(=O)c2cnc(-c3ccc(OC(F)(F)F)cc3)s2)cc1
Reply | 5.08

Ask | Query: pIC50; subject: CCCNNC(=O)CCCCCCNC(=O)c1cnc(-c2ccc(NC(=O)OC(C)(C)C)cc2)s1
Reply | 5.24

Ask | Query: pIC50; subject: CCCNNC(=O)CCCCCCNC(=O)c1cnc(-c2ccc(F)cc2F)s1
Reply | 5.10

Ask | Query: pIC50; subject: CCCNNC(=O)CCCCCCNC(=O)c1cnc(-c2ccc(Oc3ccccc3)cc2)s1
Reply | 5.06

Ask | Query: pIC50; subject: Nc1ccccc1NC(=O)c1ccc(CNC(=O)OCc2cccnc2)cc1
Reply | 5.08

Ask | Query: pIC50; subject: CCCNNC(=O)CCCCCCNC(=O)c1cnc(-c2ccc3[nH]ccc3c2)s1
Reply | 5.30

Ask | Query: pIC50; subject: CCCNNC(=O)c1ccc(NC(=O)c2cnc(-c3cc4ccc5cccc6ccc(c3)c4c56)s2)cc1
Reply | 5.28

Ask | Query: pIC50; subject: CCCNNC(=O)c1ccc(NC(=O)c2cnc(-c3ccccc3C)s2)cc1
Reply | 5.25

Ask | Query: pIC50; subject: CCCNNC(=O)CCCCCCNC(=O)c1cnc(-c2ccc(Br)cc2)s1
Reply | 4.89
